Below is a list of entries, each paired with its recorded ▴ Conductivity value.
# Test protocol: Response of test reagent pools to osmolality, conductivity and pH adjusters
# Type: physicochemical
# Test context: pH adjuster added to working concentration reagent

Solved entries (count: 3):
{"columns": ["Molecule", "▴ Conductivity"],
 "data": [
  ["c1c[nH]cn1", "+0.28 mS/cm/gm"],
  ["[Na+].[OH-] [50% Sodium Hydroxide]", "+0.38 mS/cm/gm"],
  ["Cl [6N Hydrochloric Acid]", "+0.33 mS/cm/gm"]
]}

From here, focus on the item given below.
Dear colleague, please send me the reported ▴ Conductivity for O=P([O-])(O)O.[Na+] [Sodium Phosphate Mono] when you can.
+0.46 mS/cm/gm
